For each record, write down the corresponding Kd.
- measuredTarget: T1, GFP-9S library array, motif 4 ND N98W;D124F (synthetic construct, N98W;D124F)
- T1 chain: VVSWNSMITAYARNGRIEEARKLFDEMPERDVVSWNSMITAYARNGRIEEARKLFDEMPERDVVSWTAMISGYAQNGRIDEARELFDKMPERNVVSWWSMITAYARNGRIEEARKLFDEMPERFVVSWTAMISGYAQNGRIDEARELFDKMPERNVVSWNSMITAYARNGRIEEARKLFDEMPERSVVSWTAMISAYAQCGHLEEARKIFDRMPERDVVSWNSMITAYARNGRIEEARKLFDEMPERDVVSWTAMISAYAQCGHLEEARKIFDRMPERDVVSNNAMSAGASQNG
- experimentNotes: high-throughput RNA pulldown from lysate on Ni-NTA beads; HRP: 50 mM Tris pH 8, 150 mM NaCl, 1 mM beta-mercaptoethanol, 50 ug/ml BSA, 3 ug/ml yeast RNA, 0.5% heparin; ITC and FP: Tris pH 8, 200 mM KCl, 5% glycerol; MST: 50 mM Tris pH 8, 200 mM NaCl, 1 mM DTT, BSA, heparin, 0.05% Tween 20
- cond: tags: N-terminal His-eGFP; label: 5' Cy5
Write the number in nM without appending the unit.

Data request: # get_value(readout='Kd', item= AUUACACGUGA (ssRNA) [Cy5-rpoA] )
Data returned: 95.8

Data request: # get_value(readout='Kd', item= AUUAGACGUGA (ssRNA) [Cy5-rpoA-G] )
Data returned: 80.4
